Provenance of the data: the NIST ThermoML archive (doi:10.1021/je800468h)

- Assay Context: 298.15 K; 101 kPa; Liquid; Vibrating tube method
Numbers after ± are expanded uncertainties.
Kindly state mass density for each of the entries shown.
Hi, when you answer, please include the unit after the number. Thanks!

Form field: reported mass density of CCCCCCn1cc[n+](C)c1.F[B-](F)(F)F [1-hexyl-3-methylimidazolium tetrafluoroborate]
1146.34 ± 7.1 kg/m3

Value lookup for mass density; key = CCCCn1cc[n+](C)c1.N#CN=C=[N-] [1-butyl-3-methylimidazolium dicyanamide]
1059.12 ± 6.1 kg/m3

Field request: mass density | item: CCCCn1cc[n+](C)c1.F[P-](F)(F)(F)(F)F [1-butyl-3-methylimidazolium hexafluorophosphate]
1368.32 ± 10 kg/m3

State the recorded mass density for this entry: CCCCn1cc[n+](C)c1.F[B-](F)(F)F [1-butyl-3-methylimidazolium tetrafluoroborate]
1202.19 ± 7.9 kg/m3

###

- Assay Context: 298.15 K; 101 kPa; Liquid; Alternating current cell with electrodes
Readout Type: electrical conductivity (S/m)
Write the value in S/m as a bare number.

# electrical conductivity lookup, item CCCCn1cc[n+](C)c1.F[P-](F)(F)(F)(F)F [1-butyl-3-methylimidazolium hexafluorophosphate]
0.147

Name the reported electrical conductivity value associated with the molecule CCCCCCn1cc[n+](C)c1.F[B-](F)(F)F [1-hexyl-3-methylimidazolium tetrafluoroborate]
0.123

electrical conductivity lookup needed for CCCCn1cc[n+](C)c1.F[B-](F)(F)F [1-butyl-3-methylimidazolium tetrafluoroborate] , thanks.
0.353

# electrical conductivity lookup, item CCCCn1cc[n+](C)c1.N#CN=C=[N-] [1-butyl-3-methylimidazolium dicyanamide]
1.14

Report electrical conductivity for CCn1cc[n+](C)c1.F[B-](F)(F)F [1-ethyl-3-methylimidazolium tetrafluoroborate] please.
1.55
